# System Name: T1, human LTBP1-proTGFβ1 complex (human, UniProt Q14766 347-1721; P01137 30-390)
# T1 construct: Large latent complex: one presenting molecule disulfide-linked to a proTGFβ1 dimer; also called Hu LTBP1-proTGFβ1; huLTBP1 proTGFβ1
# T1 sequence (Q14766 347-1721 limits assumed, chain 1 of 2): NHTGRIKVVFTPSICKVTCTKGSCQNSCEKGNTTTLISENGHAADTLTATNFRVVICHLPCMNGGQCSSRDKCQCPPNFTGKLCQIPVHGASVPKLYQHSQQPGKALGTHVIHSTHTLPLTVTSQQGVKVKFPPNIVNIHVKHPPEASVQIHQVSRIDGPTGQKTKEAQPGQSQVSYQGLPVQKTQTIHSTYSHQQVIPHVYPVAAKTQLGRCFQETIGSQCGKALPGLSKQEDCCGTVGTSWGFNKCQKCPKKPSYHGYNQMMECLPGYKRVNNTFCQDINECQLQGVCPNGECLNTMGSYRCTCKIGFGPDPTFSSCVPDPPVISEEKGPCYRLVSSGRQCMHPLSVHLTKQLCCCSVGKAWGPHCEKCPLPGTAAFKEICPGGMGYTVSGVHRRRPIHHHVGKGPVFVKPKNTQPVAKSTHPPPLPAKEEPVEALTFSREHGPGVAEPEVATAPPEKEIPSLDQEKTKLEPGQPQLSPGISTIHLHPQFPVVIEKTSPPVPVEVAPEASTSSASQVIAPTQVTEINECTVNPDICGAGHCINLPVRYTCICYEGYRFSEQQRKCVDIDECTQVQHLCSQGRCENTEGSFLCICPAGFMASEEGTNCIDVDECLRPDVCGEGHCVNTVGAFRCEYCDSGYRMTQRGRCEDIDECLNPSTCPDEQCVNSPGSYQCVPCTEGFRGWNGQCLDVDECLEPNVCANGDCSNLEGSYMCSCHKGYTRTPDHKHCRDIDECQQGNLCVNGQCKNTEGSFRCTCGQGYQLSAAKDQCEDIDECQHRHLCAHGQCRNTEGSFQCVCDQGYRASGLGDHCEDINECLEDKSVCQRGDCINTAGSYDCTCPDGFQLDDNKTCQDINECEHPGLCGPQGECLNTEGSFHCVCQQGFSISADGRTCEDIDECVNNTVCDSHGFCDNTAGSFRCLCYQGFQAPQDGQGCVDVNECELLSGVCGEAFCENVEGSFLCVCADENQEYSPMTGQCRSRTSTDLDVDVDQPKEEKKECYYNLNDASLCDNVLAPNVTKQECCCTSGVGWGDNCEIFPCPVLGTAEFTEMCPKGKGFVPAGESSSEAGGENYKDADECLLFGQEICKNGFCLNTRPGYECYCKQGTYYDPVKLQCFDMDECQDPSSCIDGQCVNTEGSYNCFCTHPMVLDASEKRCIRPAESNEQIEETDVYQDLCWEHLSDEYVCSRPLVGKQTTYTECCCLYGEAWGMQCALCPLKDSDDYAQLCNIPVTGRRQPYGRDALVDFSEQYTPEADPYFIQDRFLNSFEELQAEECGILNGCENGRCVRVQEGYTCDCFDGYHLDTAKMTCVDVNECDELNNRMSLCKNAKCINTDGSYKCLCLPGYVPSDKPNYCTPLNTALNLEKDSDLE
# T1 sequence (P01137 30-390 limits assumed, chain 2 of 2): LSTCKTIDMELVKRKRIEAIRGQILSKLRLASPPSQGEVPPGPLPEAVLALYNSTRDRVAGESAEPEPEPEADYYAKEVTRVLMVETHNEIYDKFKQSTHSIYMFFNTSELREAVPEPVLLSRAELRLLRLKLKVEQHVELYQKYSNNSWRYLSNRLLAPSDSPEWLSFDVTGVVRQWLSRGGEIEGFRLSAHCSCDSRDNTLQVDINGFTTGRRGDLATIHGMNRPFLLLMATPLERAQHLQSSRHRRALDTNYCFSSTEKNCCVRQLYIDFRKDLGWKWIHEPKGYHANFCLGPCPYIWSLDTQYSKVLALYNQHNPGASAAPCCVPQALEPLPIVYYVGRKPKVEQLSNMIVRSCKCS
# Assay Comment: SPR Biacore 8K, Fab over captured antigen
Measure: koff (s⁻¹)
Write the answer as a number in s⁻¹, unit excluded.

SR-AB49-HuFab (Fab, V domains shown, Human Fab; also called SR-AB49 Fab) VH: QVQLVESGGGVVQPGRSLRLSCAASGFTFRSYVMHWVRQAPGKGLEWVAVISHEGSGKYYADSVKGRFTISRDNSKNTLYLQMNSLRAEDTAVYYCARPRIAARRGGFGSWGQGTLVTVSS VL: NFMLTQPHSVSESPGKTVTISCTRSSGNIDYNYVQWYQQRPGSSPTTVIYEDNVRPSGVPDRFSGSIDSSSNSASLTISGLKTEDEADYYCQGYDWDTQGVVFGGGTKLTVL; 0.000138

Query string: What does the record list as koff for SR-AB48-HuFab (Fab, V domains shown, Human Fab; also called SR-AB48 Fab) VH: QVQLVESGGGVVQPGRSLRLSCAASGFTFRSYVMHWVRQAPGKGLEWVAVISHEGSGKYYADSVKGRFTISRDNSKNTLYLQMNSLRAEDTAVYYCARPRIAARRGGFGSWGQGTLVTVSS VL: NFMLTQPHSVSESPGKTVTISCTRSSGNIDYNYVQWYQQRPGSSPTTVIYEDNVRPSGVPDRFSGSIDSSSNSASLTISGLKTEDEADYYCQSYDYDTQGVVFGGGTKLTVL ?
Result string: 0.000104
